Item-by-item account of normalized growth
experiment: chemical genetic growth profiling, strain panel (AID 1159580);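 further: tested at 20 µM; growth read once vehicle control cultures reached saturation at 30 °C; 1 = growth at the plate median or of vehicle wells; lower values mean less growth of the strain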; details: S. cerevisiae deletion strains, growth OD, locus YJL157C, strain FAR1, stronger effect = lower value
Out of some 5,500 compounds screened, about 2,000 (36%) were called active. Another 18% or so got no clear call; they are omitted. Some of the results follow.

- STRUCTURE SMILES: "O=[N+]([O-])/C=C/c1ccsc1"
  normalized growth: 0.0861
- STRUCTURE SMILES: "NC(=Nc1ccc(F)cc1)SCc1c(Cl)cccc1Cl"
  normalized growth: 0.961
- STRUCTURE SMILES: "C=CCOc1ccc(/C=C/[N+](=O)[O-])cc1"
  normalized growth: 0.0842
- STRUCTURE SMILES: "FC(F)(F)c1cccc(NC(=S)Nc2ccccc2)c1"
  normalized growth: 0.941
- STRUCTURE SMILES: "Cc1cc(Cl)ccc1NC(=S)NNC(=S)Nc1ccc(F)cc1"
  normalized growth: 0.919
- STRUCTURE SMILES: "N#CCC(=O)NNC(=S)Nc1ccc(Cl)c(Cl)c1"
  normalized growth: 0.931
- STRUCTURE SMILES: "O=[N+]([O-])c1cc(Br)cnc1Sc1nnc(SCC2CC2)s1"
  normalized growth: 0.533
- STRUCTURE SMILES: "O=C(c1ccc2ccccc2c1)N1CCN(c2ccnc3cc(Cl)ccc23)CC1"
  normalized growth: 0.974
- STRUCTURE SMILES: "Cc1cc(Br)ccc1-n1c(Sc2c([N+](=O)[O-])cc(C(F)(F)F)cc2[N+](=O)[O-])nc2ccccc2c1=O"
  normalized growth: 0.927
- STRUCTURE SMILES: "N#CC(C#N)=C/C=C(/Sc1ccc(F)c(Cl)c1)c1ccc(Cl)cc1"
  normalized growth: 0.892
- STRUCTURE SMILES: "Cc1c2c(=O)[nH]ncc2c(-c2ccccc2)n1-c1ccc([N+](=O)[O-])cc1"
  normalized growth: 0.971
- STRUCTURE SMILES: "CC(=O)Nc1ccc(/C=C/[N+](=O)[O-])cc1"
  normalized growth: 0.844
- STRUCTURE SMILES: "O=C(NCc1ccncc1)c1ccc(-n2cccn2)cc1"
  normalized growth: 0.973
- STRUCTURE SMILES: "O=[N+]([O-])c1ccccc1CS(=O)(=O)c1nc2ccccc2s1"
  normalized growth: 0.867
- STRUCTURE SMILES: "CC(C)c1ccc(N2C=Nc3ccc(C(C)C)cc3C2)cc1"
  normalized growth: 0.995
